Molecular target: human HER3 endogenously expressed on human cancer cells (SK-Br-3, BT-474, MCF7) (human, UniProt P21860 20-1342)
Test: cell-based or functional assay
Reported SK-Br-3 pHER3 % inhibition by item:
Give the value, in units of %, as a plain number.

-- ask Given the binder MOR13657 (antibody, human IgG1, lambda, V domains shown, Tested as IgG) VH: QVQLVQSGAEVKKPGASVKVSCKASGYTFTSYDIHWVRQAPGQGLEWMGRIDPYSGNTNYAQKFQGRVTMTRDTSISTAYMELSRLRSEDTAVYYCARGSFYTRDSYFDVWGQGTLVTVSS VL: DIALTQPASVSGSPGQSITISCTGTSSDVGTYNQVSWYQQHPGKAPKLMIYGVSKRPSGVSNRFSGSKSGNTASLTISGLQAEDEADYYCSARDGWSEYVFGGGTKLTVLG , what is its reported SK-Br-3 pHER3 % inhibition?
-- reply 71

-- ask Given the binder MOR13654 (antibody, human IgG1, lambda, V domains shown, Tested as IgG) VH: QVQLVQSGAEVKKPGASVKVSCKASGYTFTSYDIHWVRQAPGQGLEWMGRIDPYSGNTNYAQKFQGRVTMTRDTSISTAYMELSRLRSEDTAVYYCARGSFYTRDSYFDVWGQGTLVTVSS VL: DIALTQPASVSGSPGQSITISCTGTSSDVGTYNQVSWYQQHPGKAPKLMIYGVSKRPSGVSNRFSGSKSGNTASLTISGLQAEDEADYYCQSRGEYRPGWVFGGGTKLTVLG , what is its reported SK-Br-3 pHER3 % inhibition?
-- reply 69

-- ask Given the binder MOR12922 (antibody, human IgG1, lambda, V domains shown) VH: QVQLVQSGAEVKKPGASVKVSCKASGYTFTGYYMHWVRQAPGQGLEWMGVIDPYSGWTEYAQKFQGRVTMTRDTSISTAYMELSRLRSEDTAVYYCARGSFYTRDSYFDVWGQGTLVTVSS VL: DIALTQPASVSGSPGQSITISCTGTSSDVGTYNQVSWYQQHPGKAPKLMIYGVSKRPSGVSNRFSGSKSGNTASLTISGLQAEDEADYYCSSRDLIGHYVFGGGTKLTVLG , what is its reported SK-Br-3 pHER3 % inhibition?
-- reply 64

-- ask Given the binder MOR12516 (antibody, human IgG1, lambda, V domains shown, Tested as IgG) VH: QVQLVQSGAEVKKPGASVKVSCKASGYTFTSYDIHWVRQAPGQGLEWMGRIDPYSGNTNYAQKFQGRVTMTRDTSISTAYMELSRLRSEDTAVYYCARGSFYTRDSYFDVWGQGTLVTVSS VL: DIALTQPASVSGSPGQSITISCTGTSSDVGTYNQVSWYQQHPGKAPKLMIYGVSKRPSGVSNRFSGSKSGNTASLTISGLQAEDEADYYCQSRDTYRPVKVFGGGTKLTVLG , what is its reported SK-Br-3 pHER3 % inhibition?
-- reply 74

-- ask Given the binder MOR12514 (antibody, human IgG1, lambda, V domains shown, Tested as IgG) VH: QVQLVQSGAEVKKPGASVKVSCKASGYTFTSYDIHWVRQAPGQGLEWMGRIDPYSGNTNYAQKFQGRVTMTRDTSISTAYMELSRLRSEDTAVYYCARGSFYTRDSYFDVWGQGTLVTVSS VL: DIALTQPASVSGSPGQSITISCTGTSSDVGTYNQVSWYQQHPGKAPKLMIYGVSKRPSGVSNRFSGSKSGNTASLTISGLQAEDEADYYCQVRDMSLFDVFGGGTKLTVLG , what is its reported SK-Br-3 pHER3 % inhibition?
-- reply 77
